Ref: patent US20240158515A1

- targetOrSystem: T1, human FGFR3b expressed with a C-terminal murine Fc tag (hFGFR3b.mFc) (human)
- T1 construct: called dimeric; also called REGN3153; dimeric human FGFR3b
- T1 chain: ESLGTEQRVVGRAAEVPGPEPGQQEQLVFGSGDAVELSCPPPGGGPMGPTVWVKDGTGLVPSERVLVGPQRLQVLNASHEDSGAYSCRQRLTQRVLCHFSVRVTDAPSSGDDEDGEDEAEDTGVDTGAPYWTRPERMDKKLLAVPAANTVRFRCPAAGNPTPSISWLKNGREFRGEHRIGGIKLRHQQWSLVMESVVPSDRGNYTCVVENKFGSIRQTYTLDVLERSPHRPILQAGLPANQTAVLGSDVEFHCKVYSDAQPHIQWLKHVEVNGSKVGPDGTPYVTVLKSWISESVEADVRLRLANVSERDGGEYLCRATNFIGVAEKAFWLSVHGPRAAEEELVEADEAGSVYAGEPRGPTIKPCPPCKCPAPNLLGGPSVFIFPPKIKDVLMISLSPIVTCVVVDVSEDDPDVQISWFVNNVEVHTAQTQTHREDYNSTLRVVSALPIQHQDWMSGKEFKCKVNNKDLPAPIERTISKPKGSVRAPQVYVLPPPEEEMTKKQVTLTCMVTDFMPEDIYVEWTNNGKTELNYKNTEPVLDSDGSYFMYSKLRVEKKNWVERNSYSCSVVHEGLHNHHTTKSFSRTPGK
- testName: SPR Biacore, mAb captured on anti-hFc, 25C
Below, each of the binders is paired with its reported 30 nM hFGFR3b.mFc Bind (RU) value.
Respond with the bare value in RU.

A selection of reference data follows.
binder: H4H30063P (antibody, human IgG4 S228P, kappa, V domains shown, HCVR 2, LCVR 10; also called REGN15684) VH: QVQLQESGPGLVKPSETLSLTCTVSGDSINSYFWSWIRQLPGKELEWIGHIYSSGSTRYNPSLQSRVTISIDTSKNQFSLKLSSVTAADTAVYYCARGASAVDYWGQGTLVTVSS VL: EIVLTQSPGTLSLSPGERATLSCRTSQSISSGYLAWYQQKPGQAPRLLIYGASRRATGIPDRFSGSGSGTDFTLTISRLEPEDFVVYYCQQYGSSPYTFGQGTKLEIKR
measuredValue: 296

binder: H4H30071P (antibody, human IgG4 S228P, kappa, V domains shown, HCVR 42, LCVR 50) VH: QVQLQQSGPGLVKPSQTLSLTCAISGDSVSRNSAAWNWIRQSPSSGLEWLGRTYYRSKWFYDYAISVKSRITVNPDTSKNQFSLHLNSVTPEDTAVYYCARGYGGYEDYFDYWGQGTLVTVSS VL: DIQMTQSPSSVSASVGDRVTITCRASQGISSWLAWYQQKPGKAPKLLIYGASSLQSGVPSRFSGSGSGTDFTLTISSLQPEDFATYFCQQGSSFPYTFGQGTKLEIKR
measuredValue: 236

Which 30 nM hFGFR3b.mFc Bind (RU) value belongs to H4H30045P (antibody, human IgG4 S228P, kappa, V domains shown, HCVR 179, LCVR 187) VH: QVQLVQSGAEVKKPGASVKVSCKTSGYRFVNYGFSWVRQAPGQGLEWMGWISPYNGNTNYIQNLQDRITMTTDTSTNTAYMELTNLRSDDTAVYYCATLTGVHFDYWGQGTLVTVSS VL: AIQMTQSPSSLSASVGDRVTITCRASQGIRNDLGWYQQKPGKAPNLLIFETSRLQSGVPSRFSGSGSGTDFTLTINSLQPEDFATYYCLQDYNYPWTFGQGTKVEIKR ?
266

Which 30 nM hFGFR3b.mFc Bind (RU) value belongs to H4H30076P (antibody, human IgG4 S228P, kappa, V domains shown) VH: EVQLVESGGGLVQPGGSLRLSCAASGFTVSSNYMSWVRQAPGKGLEWVSIIYSGGHTYYSDSVKGRFTISRHNSKNTLYLQMNSLRGGDTAVYYCARGYTSGWYGFDFWGQGTLVTVSS VL: DIQMTQSPSSVSASVGDRVTITCRASQGISTWLAWYQQKPGKAPKLLIYAASSLQSGVPSRFSGTGSGTDFTLTISSLQPEDFATYYCQQTNSFPWTFGQGTKVEIKR ?
204

Which 30 nM hFGFR3b.mFc Bind (RU) value belongs to H4H30061P (antibody, human IgG4 S228P, kappa, V domains shown) VH: EVQLVESGGGLAQPGGSLKLSCEASGFTFSDSAMHWVRQASGKGLEWVGRIRSKANSYATGYAASVKGRFTISRDDSKNMAFLEMNSLKTEDTAVYYCLRQTYGDPWGQGTLVTVSS VL: DVVMTQSPLSLSVTLGQPASISCRSSLSLVYSDGNNYLNWFQQRPGQSPRRLLYKVFNRDSGVPDRFSGSGSGTDFTLKISRVEAEDVGVYYCMQGTHWPWTFGQGTKVEIKR ?
260
